target: GluN1/GluN2C (Rattus norvegicus, UniProt P35439+Q00961); assay: Two electrode voltage clamp recording, Xenopus oocytes
Sequence (Q00961 20-1237, other chains not shown): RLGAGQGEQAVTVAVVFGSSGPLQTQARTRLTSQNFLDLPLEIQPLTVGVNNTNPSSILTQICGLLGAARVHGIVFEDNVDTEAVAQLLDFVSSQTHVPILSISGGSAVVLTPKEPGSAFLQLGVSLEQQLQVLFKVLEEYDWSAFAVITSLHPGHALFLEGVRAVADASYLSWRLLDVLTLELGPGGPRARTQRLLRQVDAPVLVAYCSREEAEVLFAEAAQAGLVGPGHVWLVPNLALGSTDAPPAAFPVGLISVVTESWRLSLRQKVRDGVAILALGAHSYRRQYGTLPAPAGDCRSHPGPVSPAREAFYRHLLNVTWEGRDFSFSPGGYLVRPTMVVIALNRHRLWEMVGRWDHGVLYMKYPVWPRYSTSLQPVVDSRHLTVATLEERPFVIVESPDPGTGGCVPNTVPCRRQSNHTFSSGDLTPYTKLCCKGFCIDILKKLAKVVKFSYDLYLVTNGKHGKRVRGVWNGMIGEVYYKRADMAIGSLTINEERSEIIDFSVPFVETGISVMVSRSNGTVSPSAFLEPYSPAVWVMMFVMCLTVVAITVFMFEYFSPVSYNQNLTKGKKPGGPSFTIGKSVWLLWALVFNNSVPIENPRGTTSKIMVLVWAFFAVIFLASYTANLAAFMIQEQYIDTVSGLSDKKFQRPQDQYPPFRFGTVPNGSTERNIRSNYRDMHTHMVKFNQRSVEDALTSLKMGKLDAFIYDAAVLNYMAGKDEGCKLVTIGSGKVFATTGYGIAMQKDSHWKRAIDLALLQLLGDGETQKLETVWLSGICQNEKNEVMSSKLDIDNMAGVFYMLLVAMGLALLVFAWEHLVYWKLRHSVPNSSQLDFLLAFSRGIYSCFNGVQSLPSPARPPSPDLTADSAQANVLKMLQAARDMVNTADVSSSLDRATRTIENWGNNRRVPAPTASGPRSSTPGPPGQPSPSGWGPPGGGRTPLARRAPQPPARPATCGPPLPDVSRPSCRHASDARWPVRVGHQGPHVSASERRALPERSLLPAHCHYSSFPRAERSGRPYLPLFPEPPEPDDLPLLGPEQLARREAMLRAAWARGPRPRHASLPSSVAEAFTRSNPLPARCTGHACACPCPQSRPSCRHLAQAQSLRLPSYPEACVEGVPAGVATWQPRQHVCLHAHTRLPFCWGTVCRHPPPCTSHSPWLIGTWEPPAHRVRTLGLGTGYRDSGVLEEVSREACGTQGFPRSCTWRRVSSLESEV

# compound, IC50, µM
rows = [
    ("CNC(=O)N1N=C(c2ccc(N)cc2)c2cc3c(cc2CC1C)OCO3 (stereo not shown)", 143),
]
